Biological target: human epidermal growth factor receptor 2 (HER2) (human, UniProt P04626 23-1255)
Assay: cell-based or functional assay
Attribute measured: % cells killed (maximal), A431 cells, anti-kappa-ETA'-conjugated antibody
Quote the value and follow it with the unit of measurement.

HER2 antibody 169 (antibody, V domains shown) VH: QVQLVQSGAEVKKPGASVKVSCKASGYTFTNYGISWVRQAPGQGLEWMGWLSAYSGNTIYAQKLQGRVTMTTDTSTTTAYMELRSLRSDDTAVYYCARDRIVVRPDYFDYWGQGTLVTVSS VL: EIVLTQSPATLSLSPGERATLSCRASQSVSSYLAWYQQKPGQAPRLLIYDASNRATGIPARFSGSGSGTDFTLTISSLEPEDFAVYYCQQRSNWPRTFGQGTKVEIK
34%

### Prompt Which % cells killed (maximal), A431 cells, anti-kappa-ETA'-conjugated antibody value belongs to HER2 antibody 091 (antibody, V domains shown) VH: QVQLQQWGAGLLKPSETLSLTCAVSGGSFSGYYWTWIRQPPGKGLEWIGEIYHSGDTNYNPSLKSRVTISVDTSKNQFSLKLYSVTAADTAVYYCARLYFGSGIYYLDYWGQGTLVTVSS VL: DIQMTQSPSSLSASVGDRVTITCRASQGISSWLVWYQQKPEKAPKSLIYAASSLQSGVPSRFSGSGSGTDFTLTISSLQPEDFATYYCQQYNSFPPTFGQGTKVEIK ?
### Response 83.3%

### Prompt Which % cells killed (maximal), A431 cells, anti-kappa-ETA'-conjugated antibody value belongs to HER2 antibody 129 (antibody, V domains shown) VH: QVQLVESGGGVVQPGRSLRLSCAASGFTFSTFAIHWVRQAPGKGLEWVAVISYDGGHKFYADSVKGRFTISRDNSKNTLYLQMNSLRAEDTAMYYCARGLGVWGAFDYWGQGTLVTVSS VL: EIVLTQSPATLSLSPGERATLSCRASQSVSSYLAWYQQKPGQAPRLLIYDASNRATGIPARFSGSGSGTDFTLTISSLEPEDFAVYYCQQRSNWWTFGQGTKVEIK ?
### Response 75.9%
